target: SARS-COV-2 RBD extracellular domain expressed with a C-terminal mouse IgG2a (SARS-COV-2 RBD-mFc) (SARS-CoV-2); assay: SPR, captured mAb, RBD-mFc in solution, 37 C
experimental_readout: kon (M⁻¹ s⁻¹)
One number for each entry, in M⁻¹ s⁻¹.

I need kon for every entry listed below, if you could help.
1. mAb10998 (antibody, V domains shown) VH: EVQLVESGGGLVHPGGSLRLSCAASGLTVSSNYMSWVRQAPGKGLEWVSVIYSGGSTYYADSVKGRFTISRHNSKNTLFLQMNSLRAEDTAVYYCARDRPITGTTLDVWGQGTTVTVSS VL: DIQMTQSPSSLFASVGDRVTITCRASQSISSYLNWYQQKPGKAPKLLIYAASSLQSGVPSRFSGSGSGTDFTLTISSLQPEDFAFYYCQQTYSTPPITFGQGTRLEIKR
2. mAb10939 (antibody, V domains shown) VH: EVQLVESGGGLVQPGGSLRLSCAASGLTVSSNYMNWVRQVPGKGLEWVSVIYSGGSKFYVDSVKGRFTISRHNSKNTLYLQMNSLRPEDTAVYYCTRDAQYYGMDVWGQGTTVTVSS VL: DIQMTQSPSSLSASVGDRVTITCRASQSISTYLHWYQQKPGEAPKLLIYAASSLQSGVPSRFSGSGSGTDFTLTISSLQPEDFATYYCQQSYSTPPEIFGQGTKLEIKR

A)
879000
1.06e+06
